Assay: MTT cell viability assay
Type: cell-based
Conditions: human, L3.6pl cells; low-dose 0.5 μM or 1.0 μM, 24 hours
Procedure: Cells were seeded in a 96-well plate at a density of 4000 to 5000 cells per well (70%-80% confluence) in triplicate. Non-adherent cells were washed with PBS, and different substrate dilutions were added. After 24 hours, 3-(4,5-dimethylthiazol-2-yl)-2,5-diphenyltetrazolium bromide (MTT) assay (Roche, Mannheim, Germany) was performed according to the manufacturer's instructions. Results were measured at 570 nm and background at 650 nm on a microplate reader (Molecular Devices).
experimental_readout: viability at 24 h (%)

structure=Oc1c2ccccc2c2c3c(cccc13)N=N2 meas_value=80
